System: Rattus norvegicus
Assay: Antihypertensive activity was evaluated in SH rats by measuring initial mean arterial pressure at 0.24 mM/kg dose administered perorally; equivalent to 50 mg/kg of methyldopa
Type: functional, Artery
Details: route oral
Endpoint: Initial mean arterial pressure (mmHg)
Write down the numeric answer in mmHg and omit the unit.

IN: Endpoint output: Initial mean arterial pressure of CC(N)(Cc1ccc(O)c(O)c1)C(=O)OCc1oc(=O)oc1C(C)(C)C (centres undefined) . Value?
OUT: 172

IN: Endpoint output: Initial mean arterial pressure of CC(OC(=O)C(C)(C)C)OC(=O)C(C)(N)Cc1ccc(O)c(O)c1.Cl (centres undefined) . Value?
OUT: 181

IN: Endpoint output: Initial mean arterial pressure of C[C@](N)(Cc1ccc(O)c(O)c1)C(=O)O [METHYLDOPA] . Value?
OUT: 174

IN: Endpoint output: Initial mean arterial pressure of Cc1oc(=O)oc1COC(=O)C(C)(N)Cc1ccc(O)c(O)c1 (centres undefined) . Value?
OUT: 172

---

Experiment: Compound was evaluated for its renal clearance after oral administration (200 mg) to Beagle dogs
Assay type: ADME, organism-based, Canis lupus familiaris
Conditions: dog, in vivo, read-out: Renal clearance
Would you mind telling me the reported CL renal of each entry?
Write down the numeric answer in mL/min and omit the unit.

IN: Endpoint output: CL renal of CC(N)(Cc1ccc(O)c(O)c1)C(=O)OCc1oc(=O)oc1C(C)(C)C (stereo not drawn) . Value?
OUT: 29.3

IN: Endpoint output: CL renal of C[C@](N)(Cc1ccc(O)c(O)c1)C(=O)O [METHYLDOPA] . Value?
OUT: 31.9

IN: Endpoint output: CL renal of Cc1oc(=O)oc1COC(=O)C(C)(N)Cc1ccc(O)c(O)c1 (stereo not drawn) . Value?
OUT: 29.2

---

Test: Compound was evaluated for its urinary recovery after oral administration (200 mg) to Beagle dogs
Format: ADME, organism-based, Canis lupus familiaris
Settings: dog, urine, read-out: Activity
Endpoint: dose excreted

IN: Endpoint output: dose excreted of C[C@](N)(Cc1ccc(O)c(O)c1)C(=O)O . Value?
OUT: 54.2%

IN: Endpoint output: dose excreted of CC(N)(Cc1ccc(O)c(O)c1)C(=O)OCc1oc(=O)oc1C(C)(C)C (stereo not drawn) . Value?
OUT: 31.4%

IN: Endpoint output: dose excreted of Cc1oc(=O)oc1COC(=O)C(C)(N)Cc1ccc(O)c(O)c1 (stereo not drawn) . Value?
OUT: 53.2%
